Measured IC50, listed per entry for reference.
- TARGET OR TEST SYSTEM: hmGluR1 receptor (Homo sapiens)
- Construct: expressed in transfected cells
- ASSAY INFO: IC50 determination: intracellular calcium mobilization (FLIPR) upon Quisqualate stimulation in CHO cells stably expressing hmGluR1
- Assay type: cell-based
- STATED CONDITIONS: against Quisqualate 1 μM (EC80), class symbols, read-out: mGIuR 1 IC50
MEASUREMENT NAME: IC50

- COMPOUND: "CC(=O)Nn1c(C)nc2c(sc3nccc(N(C)C)c32)c1=O [65A]"
  MEASUREMENT NAME: "IC50"
  REPORTED RESULT: "> 1000 nM"
- COMPOUND: "C=Cc1ccc(-n2cnc3c(sc4nccc(N(C)C)c43)c2=O)cc1"
  MEASUREMENT NAME: "IC50"
  REPORTED RESULT: "< 50 nM"
- COMPOUND: "CCCNc1ccnc2sc3c(=O)n(-c4ccc(OC)cc4)cnc3c12 [28AR]"
  MEASUREMENT NAME: "IC50"
  REPORTED RESULT: "< 50 nM"
- COMPOUND: "CN(C)c1ccnc2sc3c(=O)n(C4CCC5(CC4)OCCO5)cnc3c12"
  MEASUREMENT NAME: "IC50"
  REPORTED RESULT: "150 to 1000 nM"
- COMPOUND: "Cc1ccc(-n2cnc3c(sc4ncc(N)cc43)c2=O)cc1 [147A]"
  MEASUREMENT NAME: "IC50"
  REPORTED RESULT: "150 to 1000 nM"

* * *

- TARGET OR TEST SYSTEM: hmGluR1 receptor (Homo sapiens, UniProt Q13255)
- Construct: expressed in transfected cells
- Sequence (Q13255 19-1194): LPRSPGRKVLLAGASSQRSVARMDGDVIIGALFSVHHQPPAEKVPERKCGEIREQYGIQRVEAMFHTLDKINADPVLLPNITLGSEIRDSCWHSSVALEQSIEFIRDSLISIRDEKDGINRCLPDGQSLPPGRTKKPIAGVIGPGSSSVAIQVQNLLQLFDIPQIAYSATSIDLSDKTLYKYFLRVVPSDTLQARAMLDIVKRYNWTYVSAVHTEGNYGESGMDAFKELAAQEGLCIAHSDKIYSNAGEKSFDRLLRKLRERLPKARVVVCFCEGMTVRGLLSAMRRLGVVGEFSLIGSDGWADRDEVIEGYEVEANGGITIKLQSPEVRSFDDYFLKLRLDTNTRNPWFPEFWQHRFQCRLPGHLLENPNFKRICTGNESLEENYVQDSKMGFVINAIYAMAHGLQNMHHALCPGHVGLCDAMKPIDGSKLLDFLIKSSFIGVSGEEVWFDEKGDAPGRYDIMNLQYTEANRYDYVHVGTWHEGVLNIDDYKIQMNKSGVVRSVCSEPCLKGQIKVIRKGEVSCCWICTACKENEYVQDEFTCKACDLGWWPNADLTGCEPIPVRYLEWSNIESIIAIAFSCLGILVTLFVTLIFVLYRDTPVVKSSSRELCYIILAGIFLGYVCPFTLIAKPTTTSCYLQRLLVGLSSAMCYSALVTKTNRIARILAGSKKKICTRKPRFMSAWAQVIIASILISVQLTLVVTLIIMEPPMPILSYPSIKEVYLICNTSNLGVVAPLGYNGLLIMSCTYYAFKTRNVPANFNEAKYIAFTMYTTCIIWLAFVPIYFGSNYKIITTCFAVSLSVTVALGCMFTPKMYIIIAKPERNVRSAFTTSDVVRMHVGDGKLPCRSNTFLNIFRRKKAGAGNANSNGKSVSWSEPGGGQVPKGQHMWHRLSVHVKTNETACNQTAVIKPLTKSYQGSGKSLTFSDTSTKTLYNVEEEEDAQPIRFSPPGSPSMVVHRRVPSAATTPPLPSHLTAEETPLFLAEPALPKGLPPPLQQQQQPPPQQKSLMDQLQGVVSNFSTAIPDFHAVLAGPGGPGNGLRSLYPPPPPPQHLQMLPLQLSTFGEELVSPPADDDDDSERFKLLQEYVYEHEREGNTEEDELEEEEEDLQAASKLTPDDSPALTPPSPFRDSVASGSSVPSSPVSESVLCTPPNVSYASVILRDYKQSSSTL
- ASSAY INFO: IC50 determination: intracellular calcium mobilization (FLIPR) upon Quisqualate stimulation in CHO cells stably expressing hmGluR1
- Format: cell-based
- STATED CONDITIONS: against Quisqualate 1 μM (EC80), FLIPR calcium mobilization, read-out: IC50 Class
pIC50: −log10 of the molar value.

- MOLECULE: "O=c1c2sc3nccc(NCCO)c3c2ncn1-c1ccc(F)cc1 [28GC]"
  pIC50: "6.82 to 7.30"
- MOLECULE: "COCCn1cnc2c(sc3ncnc(NC4CC4)c32)c1=O [95EC]"
  pIC50: "< 6.00"
- MOLECULE: "Cc1ccc(-n2cnc3c(sc4nccc(NCc5cccs5)c43)c2=O)cc1 [28EQ]"
  pIC50: "6.00 to 6.82"
- MOLECULE: "O=c1c2sc3nccc(NC4CC4)c3c2ncn1-c1ccc(Br)cc1 [28GY]"
  pIC50: "> 7.30"
- MOLECULE: "O=c1c2sc3ncnc(Nc4ccccc4)c3c2ncn1-c1ccc(Cl)cc1 [95FX]"
  pIC50: "6.00 to 6.82"

* * *

Below: a set of entries, each annotated with reported IC50.
- TARGET OR TEST SYSTEM: hmGluR1 receptor (Homo sapiens, UniProt Q13255)
- Construct: expressed in transfected cells
- ASSAY INFO: IC50 determination: intracellular calcium mobilization (FLIPR) upon Quisqualate stimulation in CHO cells stably expressing hmGluR1
- Assay type: cell-based
- STATED CONDITIONS: against Quisqualate 1 μM (EC80), FLIPR calcium mobilization, read-out: IC50 Class
MEASUREMENT NAME: IC50

- COMPOUND: "O=c1c2sc3ncnc(NCC(F)(F)F)c3c2ncn1-c1ccc(Br)cc1 [95EE]"
  REPORTED RESULT: "< 50 nM"
- COMPOUND: "COc1ccc(-n2cnc3c(sc4ncc(C#N)c(N)c43)c2=O)cc1 [compound 194]"
  REPORTED RESULT: "150 to 1000 nM"
- COMPOUND: "CCNc1ccnc2sc3c(=O)n(-c4ccc(OC)cc4C)cnc3c12 [28BO]"
  REPORTED RESULT: "< 50 nM"
- COMPOUND: "COc1ccc(-n2cnc3c(sc4nc(N)cc(NC5CC5)c43)c2=O)cc1 [59G]"
  REPORTED RESULT: "< 50 nM"
- COMPOUND: "CNc1ccnc2sc3c(=O)n(-c4ccc5c(c4)OCCO5)cnc3c12 [28BZ]"
  REPORTED RESULT: "< 50 nM"
- COMPOUND: "C=C(C)CNc1ncnc2sc3c(=O)n(-c4ccc(OC)cc4)cnc3c12 [95FT]"
  REPORTED RESULT: "< 50 nM"
- COMPOUND: "COc1ccc(-n2cnc3c(sc4ncnc(NCc5ccco5)c43)c2=O)cc1 [95GQ]"
  REPORTED RESULT: "150 to 1000 nM"
- COMPOUND: "COc1ccc(-n2cnc3c(sc4ncnc(N)c43)c2=O)cc1 [95FU]"
  REPORTED RESULT: "50 to 150 nM"
- COMPOUND: "Cc1ccc(-n2cnc3c(sc4nc(NS(C)(=O)=O)cc(N(C)C)c43)c2=O)cc1 [28FL]"
  REPORTED RESULT: "150 to 1000 nM"

Hello, the source for this data is patent US7989464B2, in case you need it.
